B1: Pistol ribozyme (parent)
chain: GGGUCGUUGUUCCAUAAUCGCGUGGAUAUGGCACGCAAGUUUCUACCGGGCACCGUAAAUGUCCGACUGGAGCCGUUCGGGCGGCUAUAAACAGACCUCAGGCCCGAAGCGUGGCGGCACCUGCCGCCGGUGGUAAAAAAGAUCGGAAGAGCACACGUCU

variants of: B1; experiment: aptazyme ON/OFF ratio, guanine; higher = stronger switching; co-transcriptional cleavage with and without guanine
PROPERTY: aptazyme ON/OFF ratio
Just the number, please.

Consider the reported aptazyme ON/OFF ratio for these variants:
U8C G9U U10C U11A C12A C13G    1.08
U8A G9C U10G U11C C12G C13A    1.27
U8A G9U U10C C13A    1.08
U8C G9U U11C C13G    1.03
U7A U8A G9U U10G U11C C12U C13A    1.09

Prompt: Requested field: aptazyme ON/OFF ratio. Item: U7C U8A G9U U10G U11C C12U C13U
Completion: 1.22

Prompt: Requested field: aptazyme ON/OFF ratio. Item: U7G G9A U10A U11G C12G C13G
Completion: 1.14

Prompt: Requested field: aptazyme ON/OFF ratio. Item: U7A U8A G9A U10A U11G C12U C13G
Completion: 1.24
